- ASSAY_METHOD_TEXT: Plasma concentrations of A1 and A2 after oral administration, mice
- Assay type: in vivo
- MEASUREMENT_PARAMETERS: mouse, after mixture A1 A2 574 mg/m^2 p.o., 3 H, n = 10
READOUT: concentration

[
  {
    "COMPOUND": "C[S+]([O-])CCN(N=O)C(=O)NCCCl (centres unmarked) [Compound A1]",
    "READOUT": "concentration",
    "OBSERVED": "10.1 µM"
  },
  {
    "COMPOUND": "C[S+]([O-])CCNC(=O)N(CCCl)N=O (centres unmarked) [Compound A2]",
    "READOUT": "concentration",
    "OBSERVED": "2.9 µM"
  }
]

All values here come from patent US5001158A.
